B1: KLHDC10 (parent)
chain: FGGTGIPFGESNGNGVHVCNVKYK

variants of: B1; assay: protein stability index of a GFP-peptide fusion (GPS, HEK-293T) (PSI 1-6); higher = more stable; conditions: c terminus: a fixed tail appended;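 further: lentivirally expressed fusions sorted by FACS into six bins by GFP to DsRed ratio, PSI derived from sequencing read proportions per bin multiplied by bin number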
Tag: Yes if measured protein stability index is not below 2, No if it is.

>>> print(df.to_string())
    mutant_code  discrete_label
 0          P7D             Yes
 1         H17P             Yes
 2          P7M              No
 3          F8Q             Yes
 4          F1A             Yes
 5         E10K              No
 6          T4K              No
 7          F8I             Yes
 8         C19R             Yes
 9         G13H              No
10          G5H              No
11         N12V              No
12         N12W              No
13          P7A              No
14         C19K             Yes
15         H17F             Yes
16         E10L             Yes
17         G15V              No
18         K24S              No
19         V18K              No
20         N20R             Yes
21         Y23A             Yes
